assayed.target: Peptidyl-prolyl cis-trans isomerase NIMA-interacting 1 (Homo sapiens)
Sequence (Q13526 whole entry): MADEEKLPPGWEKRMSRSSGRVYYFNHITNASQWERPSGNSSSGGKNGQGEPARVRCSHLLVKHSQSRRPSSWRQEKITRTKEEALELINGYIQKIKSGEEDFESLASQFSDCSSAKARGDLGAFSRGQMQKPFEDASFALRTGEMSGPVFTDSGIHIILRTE
assay.comment: Inhibition of N-terminal 6-His tagged full length Pin1 (unknown origin) expressed in Escherichia coli at 10 uM using Suc-AEPF-pNA as substrate preincubated for 10 mins followed by substrate addition and measured for 180 secs by spectrophotometry relative to untreated control
attribute.measured: inhibition (%)
# output: bare number, implied unit %

Here is how some compounds turned out for inhibition.
CC(C)(C)c1ccc2c(-c3ccc4c(c3)OCO4)coc2c1 63.7
c1ccc(-c2coc3ccccc23)cc1 12.4
Clc1cc(Cl)c2occ(-c3ccccc3)c2c1 16.2

Request: Which value of inhibition has been reported for Cc1ccc(-c2coc3ccc([N+](=O)[O-])cc23)cc1 in the records?
Response: 32.6

Request: Can you handle N#Cc1ccc2occ(-c3ccc4c(c3)OCO4)c2c1 next?
Response: 46.9

Request: Can you check COc1ccc(-c2coc3ccccc23)cc1 next?
Response: 54.8

Request: What do we get for Cc1ccc2oc(-c3ccccc3)c(-c3ccccc3)c2c1 ?
Response: 13.9

FYI, the data here is from ChEMBL document CHEMBL4340544.
